Reference source for all entries: patent US20240002497A1

TEST TARGET: T1, huNav1.7α + β1 (human)
T1 construct: HEK293 cells; also called huNav1.7-beta1; huNav1.7-β1
EXPERIMENT NOTES: competition FACS vs EC25 of F103275B05(N93R), HEK
pIC50: −log10 of the molar value.
METRIC NAME: pIC50

BINDER	OBS VALUE
F010302379 (bispecific antibody, also called F0103275B05(E1D, N93R)-50GS-F0103500E03(P14A, L108Q)-FLAG3-HIS6) DVQLVESGGGLVQPGGSLRLSCAASGSIFNINSMAWYRRAPGKQRELVASSTNGGSTNYADSVKGRFTISRDNAKRVYLQMNSLTPEDTAVYYCRALLQPSIYDISRTYWGQGTLVTVSSGGGGSGGGGSGGGGSGGGGSGGGGSGGGGSGGGGSGGGGSGGGGSGGGGSEVQLVESGGGLVQAGGSLRLSCAASGRTFSRYQMGWFRQAPGKEREFVAYISWSGSTRYVDSVKGRFTISRDNAKNTVYLQMNSLKPEDTAVYHCAAGTAGIISSRPETYDSWGQGTQVTVSSGAADYKDHDGDYKDHDIDYKDDDDKGAAHHHHHH	6.82
F010300191 (bispecific antibody, also called F0103275B05-50GS-F0103240B04-FLAG3-HIS6) EVQLVESGGGLVQPGGSLRLSCAASGSIFNINSMAWYRRAPGKQRELVASSTNGGSTNYADSVKGRFTISRDNAKRVYLQMNSLTPEDTAVYYCNALLQPSIYDISRTYWGQGTLVTVSSGGGGSGGGGSGGGGSGGGGSGGGGSGGGGSGGGGSGGGGSGGGGSGGGGSEVQLVESGGGLVQAGGSLRLSCAASGGTGRRYAMGWFRQAPGKEREIVAAIRWSAMTYYADDGKGRFTISRDNAKNTVYLQMNSLKPEDTAIYYCAYTWDYFKYDQVRAYRGWGQGTLVTVSSGAADYKDHDGDYKDHDIDYKDDDDKGAAHHHHHH	6.96
